# TARGET OR SYSTEM: Alpha-galactosidase (Coffea arabica, UniProt Q5DUH8)
# Sequence (Q5DUH8 whole entry): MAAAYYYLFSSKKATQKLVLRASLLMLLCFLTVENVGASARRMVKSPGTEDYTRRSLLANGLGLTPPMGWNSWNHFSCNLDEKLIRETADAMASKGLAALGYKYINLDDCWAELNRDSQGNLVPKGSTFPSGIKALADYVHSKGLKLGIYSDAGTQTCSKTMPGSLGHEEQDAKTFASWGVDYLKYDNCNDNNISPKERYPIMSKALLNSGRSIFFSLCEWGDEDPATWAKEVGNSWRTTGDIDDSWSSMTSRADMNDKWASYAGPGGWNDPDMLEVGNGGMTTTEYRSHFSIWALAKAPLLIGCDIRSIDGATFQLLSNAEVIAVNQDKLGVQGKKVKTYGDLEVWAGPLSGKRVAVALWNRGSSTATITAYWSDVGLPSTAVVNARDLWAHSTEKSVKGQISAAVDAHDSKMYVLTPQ
REPORTED ENDPOINT: pIC50
// pIC50 here means minus log10 of the molar concentration (mol/L)

Query block: Please report the recorded pIC50 for CC[C@@H]1C[C@H](O)[C@@H](O)[C@@H](CO)N1 .
Result block: 5.19
